src = PubChem BioAssay AID1159580

# assay details: chemical genetic growth profiling, strain panel (AID 1159580);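 note: tested at 20 µM; growth read once vehicle control cultures reached saturation at 30 °C; 1 = growth at the plate median or of vehicle wells; lower values mean less growth of the strain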
# condition details: S. cerevisiae deletion strains, growth OD, locus YDR162C, strain NBP2, stronger effect = lower value
Among all 5,500 compounds or so, about 2,000 (36%) were called active. About 18% were inconclusive and are not listed. Some of the results follow.

| compound | normalized growth |
| --- | --- |
| COC(=O)c1c(C)cc(OC(=O)c2c(C)c(Cl)c(O)c(C=O)c2O)c(C)c1O | 0.997 |
| C=C1C2CCC3(C)C(c4ccoc4)OC(=O)CC13OC1CC(OC(C)=O)C(C)(C)C(CC(=O)OC)C12C (centres undefined) | 0.991 |
| C=C1C2CC[C@@]3(C)[C@H](c4ccoc4)OC(=O)C[C@]13O[C@H]1CC(=O)C(C)(C)C(CC(=O)OC)[C@@]21C (some centres undefined) | 0.962 |
| C=C1C(C2(C)C=CC(=O)C(C)(C)C2CC(=O)OC)CC[C@@]2(C)[C@H](c3ccoc3)OC(=O)C3OC132 (some centres undefined) | 0.982 |
